Cited source: the supplement of paper PMC11061612

Tested on: MDA-MB-415 (Breast Carcinoma);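 further: after 72 h of two-drug dosing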
PROCEDURE DETAILS: Bliss excess, mean over the matrix (fraction); higher = more synergy
Note to self: values exactly at -0.02 are Met. So Bliss excess at or above -0.02 is Met, below is Not met.

Task: Kindly determine if Bliss excess recorded for CN(CCO)CC[C@H](CSc1ccccc1)Nc1ccc(S(=O)(=O)NC(=O)c2ccc(N3CCC([C@@H](O)c4ccccc4-c4ccc(Cl)cc4)CC3)cc2)cc1S(=O)(=O)C(F)(F)F [AZD4320] + CCN(CCO)CCCOc1ccc2c(Nc3cc(CC(=O)Nc4cccc(F)c4)[nH]n3)ncnc2c1 [AZD2811] (first compound max 1 µM, 7x7, partner max 1 µM) is above or exactly -0.02.
Output: Met

Task: Subsequent entry: Cn1cnc2c(F)c(Nc3ccc(Br)cc3Cl)c(C(=O)NOCCO)cc21 [Selumetinib] + CCN(CCO)CCCOc1ccc2c(Nc3cc(CC(=O)Nc4cccc(F)c4)[nH]n3)ncnc2c1 [AZD2811] (first compound max 10 µM, 7x7, partner max 1 µM)
Output: Met

Task: Subsequent entry: COc1cccc2c1C(=O)c1c(O)c3c(c(O)c1C2=O)C[C@@](O)(C(=O)CO)C[C@@H]3O[C@H]1C[C@H](N)[C@H](O)[C@H](C)O1 [Doxorubicin] + Cc1cc2ncnn2cc1Nc1ncc2c(n1)n(C1CCOCC1)c(=O)n2C [AZD7648] (first compound max 1 µM, 7x7, partner max 10 µM)
Output: Not met

Task: Subsequent entry: CN(CCO)CC[C@H](CSc1ccccc1)Nc1ccc(S(=O)(=O)NC(=O)c2ccc(N3CCC([C@@H](O)c4ccccc4-c4ccc(Cl)cc4)CC3)cc2)cc1S(=O)(=O)C(F)(F)F [AZD4320] + C[C@@H](Nc1cc(F)cc(F)c1)c1cc(C(=O)N(C)C)cc2c(=O)cc(N3CCOCC3)oc12 [AZD8186] (first compound max 1 µM, 7x7, partner max 3 µM)
Output: Met

Task: Subsequent entry: Cn1cnc2c(F)c(Nc3ccc(Br)cc3Cl)c(C(=O)NOCCO)cc21 [Selumetinib] + CC(C)n1c(=O)n(C)c2cnc3cc(F)c(-c4ccc(OCCCN5CCCCC5)nc4)cc3c21 [AZD1390] (first compound max 10 µM, 7x7, partner max 0.3 µM)
Output: Not met

Task: Subsequent entry: Cc1c2c(nn1C)CSCc1cc(n(C)n1)CSc1cc(c3ccccc3c1)OCCCc1c(C(=O)O)n(C)c3c-2c(Cl)ccc13 [AZD5991] + CN(C)CCCOc1ccc(-c2ccc3ncc4c(c3c2)n(C2CCOCC2)c(=O)n4C)cn1 [AZD0156] (first compound max 1 µM, 7x7, partner max 1 µM)
Output: Met

Task: Subsequent entry: CC(=O)c1c(C)c2cnc(Nc3ccc(N4CCNCC4)cn3)nc2n(C2CCCC2)c1=O [Palbociclib] + Cc1c2c(nn1C)CSCc1cc(n(C)n1)CSc1cc(c3ccccc3c1)OCCCc1c(C(=O)O)n(C)c3c-2c(Cl)ccc13 [AZD5991] (first compound max 10 µM, 7x7, partner max 1 µM)
Output: Not met
